- assay protocol: Measured logD by high-throughput HPLC
- Format: physicochemical
- experimental parameters: reversed-phase HPLC, Poroshell 120 EC-C18 column; HT HPLC, pH 7.0; read-out: mlogD (measured logD)
metric name: chromatographic logD

Examples from the recorded data:
* O=C(Nc1ccc([C@H]2CC[C@H](C(=O)O)CC2)cc1F)c1nnc(Nc2ccc(F)c(F)c2)o1 | 1.73
* Nc1ncnc2c1C(=O)N(c1ccc([C@H]3CC[C@H](CC(=O)O)CC3)cc1)CCO2 | 0.35

[P] CC(C)(C)OC(=O)NC1(C(=O)N[C@@H]2CC(=O)c3ccccc3N(Cc3cc(C(F)(F)F)cc(C(F)(F)F)c3)C2=O)CC1
[Q] CC(C)(O)C[C@H]1CC[C@H](c2ccc(N3CCOc4ncnc(N)c4C3=O)cc2)CC1
Task: Pick one: P or Q . Which one has the lower reported chromatographic logD? Kindly state the label of the option you pick.
Output: Q
